The reported numbers originate from ChEMBL document CHEMBL1147421.

The following molecules are shown together with reported EC50 values.
- Test system: Plasmodium falciparum
- ASSAY_METHOD_TEXT: Antiparasitic activity against chloroquine-resistant Plasmodium falciparum W2
- Format: functional, organism-based
- CONDITION_NOTES: Plasmodium falciparum
Could you give me the number in nM? Just the number is fine.

Challenge: Fill: EC50 (Plasmodium falciparum) for this molecule CC(C)c1ccc(CN(CCCN)Cc2ccccc2)cc1
Response given: 2190

* * *

- Test system: Plasmodium falciparum
- ASSAY_METHOD_TEXT: Antiparasitic activity against Plasmodium falciparum D6
- Format: functional, organism-based
- CONDITION_NOTES: Plasmodium falciparum
As shown below, each of these compounds has a reported EC50 value.
Lab book: enter the figure in nM, no units written.

CCCCN(CCCC)CCCN.O=C(O)C(F)(F)F ... 6330
NCCCCN(Cc1ccccc1)Cc1ccc(OCc2ccccc2)cc1 ... 5730
CCN(CC)CCCC(C)Nc1ccnc2cc(Cl)ccc12 (centres undefined) [CHLOROQUINE] ... 14
CCCCOc1ccc(CN(CCCCN)Cc2ccc(OCCCC)cc2)cc1 ... 4090
COc1cc(CN(CCCN)Cc2ccc(OCc3ccccc3)c(OC)c2)ccc1OCc1ccccc1 ... 2970

Challenge: Kindly indicate its recorded EC50. Item: NCCCN(Cc1ccc(OCc2ccccc2)c(OCc2ccccc2)c1)Cc1ccc(OCc2ccccc2)c(OCc2ccccc2)c1
Response given: 2900

Challenge: Consider the compound CC1=C2[C@H]3OC(=O)[C@@H](C)[C@@H]3[C@@H](O)C[C@@]2(C)C=CC1=O . State its measured EC50.
Response given: 20

Challenge: Give the reported value of EC50 for this record: NCCCCN(Cc1ccc(OCCc2ccccc2)cc1)Cc1ccc(OCCc2ccccc2)cc1.O=C(O)C(F)(F)F
Response given: 7430

Challenge: In one line, give reported EC50 of the entry NCCCN(Cc1ccc(OCc2ccccc2)cc1)Cc1ccc(OCc2ccccc2)cc1 .
Response given: 4990

Challenge: Query EC50 for NCCCN(Cc1ccc(OCc2ccc(Br)cc2)cc1)Cc1ccc(OCc2ccc(Br)cc2)cc1
Response given: 1140

Challenge: Note EC50 for the compound shown: NCCCN(Cc1ccc(OCc2ccc(Cl)c(Cl)c2)cc1)Cc1ccc(OCc2ccc(Cl)c(Cl)c2)cc1
Response given: 1340

Challenge: Note down EC50 recorded for CC(C)(C)c1ccc(COc2ccc(CN(CCCCN)Cc3ccc(OCc4ccc(C(C)(C)C)cc4)cc3)cc2)cc1
Response given: 1070

Challenge: Determine its reported EC50: NCCCCN(Cc1ccc(OCc2c(F)c(F)c(F)c(F)c2F)cc1)Cc1ccc(OCc2c(F)c(F)c(F)c(F)c2F)cc1
Response given: 680

Challenge: Answer with the recorded EC50 for the compound listed here: NCCCN(Cc1ccc(OCCCc2ccccc2)cc1)Cc1ccc(OCCCc2ccccc2)cc1
Response given: 1880
